This collection of values is drawn from paper PMC10035389.

TEST DETAILS: Plasma and urine pharmacokinetics, noncompartmental analysis
Format: in vivo, human
APPLIED CONDITIONS: human, plasma; oral, 50 mg dose; read-out: Tmax
EXPERIMENTAL READOUT: Tmax

• Cc1[nH]ncc1-c1cc2nc([C@@H]3CC4CCN3CC4)[nH]c(=O)c2s1 = ~2 h
